# maps each entry to its folding stability dG unfold
# test: folding stability dG unfold from chymotrypsin proteolysis; higher = more stable
readoutName: folding stability dG unfold

>>> measurement("SAGGSAGGSAGGPTIVLKVSPEELKALEKAGVEIEKIEKNEDGELYITLTPEALKKAGFESAGGSAGGSAGG [r7_587_TrROS_Hall]")
"12.2 kJ/mol"
>>> measurement("SAGGSAGGMREIEHEIPNPNGRNIKIKIEYDPDQGWHPVEIENPGNGKKKTYPFDSADEVLDQLSAGGSAGG [r6_465_TrROS]")
"2.5 kJ/mol"
>>> measurement("SAGMLEISSDVLKALGIPVGATAEEVKERIQRRLEELGFEVEIPSVVIEELDPETGRVGVRIDLDLRPPSAG [r5_23_TrMRF]")
"9.34 kJ/mol"
>>> measurement("SAGGSAGGSAMIVTEEGNTITITTLTNLTFPTTGATSTATTTTTITLPPTPLFPVPRTDNSLSAGGSAGGSA [r18_501_JUSTAS]")
"3.43 kJ/mol"
